Below: a set of entries, each annotated with reported self-cleavage kobs at 40 uM GlcN6P.
B1: glmS ribozyme (parent)
chain: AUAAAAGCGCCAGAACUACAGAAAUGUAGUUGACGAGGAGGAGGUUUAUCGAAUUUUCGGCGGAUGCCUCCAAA

variants of: B1; experiment: self-cleavage kobs at 40 uM GlcN6P; higher = faster cleavage; RNA array; conditions: with glucosamine-6-phosphate
Variants at the floor of the assay were thinned out.

[
  {
    "mutation_descriptor": "C8U A64C",
    "self-cleavage kobs at 40 uM GlcN6P": "< 1e-05 s⁻¹"
  },
  {
    "mutation_descriptor": "U30C C67G",
    "self-cleavage kobs at 40 uM GlcN6P": "< 1e-05 s⁻¹"
  },
  {
    "mutation_descriptor": "G13U A39G",
    "self-cleavage kobs at 40 uM GlcN6P": "5.19e-05 s⁻¹"
  },
  {
    "mutation_descriptor": "C10G G29A U54G",
    "self-cleavage kobs at 40 uM GlcN6P": "< 1e-05 s⁻¹"
  },
  {
    "mutation_descriptor": "A14U U49A",
    "self-cleavage kobs at 40 uM GlcN6P": "< 1e-05 s⁻¹"
  },
  {
    "mutation_descriptor": "A33C G41C U57G",
    "self-cleavage kobs at 40 uM GlcN6P": "< 1e-05 s⁻¹"
  },
  {
    "mutation_descriptor": "C8A C11G U46G",
    "self-cleavage kobs at 40 uM GlcN6P": "< 1e-05 s⁻¹"
  },
  {
    "mutation_descriptor": "C8U A12G C50U C68G",
    "self-cleavage kobs at 40 uM GlcN6P": "3.9e-05 s⁻¹"
  },
  {
    "mutation_descriptor": "C10G U31C",
    "self-cleavage kobs at 40 uM GlcN6P": "< 1e-05 s⁻¹"
  },
  {
    "mutation_descriptor": "A6C A12C G59C",
    "self-cleavage kobs at 40 uM GlcN6P": "< 1e-05 s⁻¹"
  },
  {
    "mutation_descriptor": "A14G U65C",
    "self-cleavage kobs at 40 uM GlcN6P": "7.25e-05 s⁻¹"
  },
  {
    "mutation_descriptor": "G37C G44A",
    "self-cleavage kobs at 40 uM GlcN6P": "< 1e-05 s⁻¹"
  },
  {
    "mutation_descriptor": "A42U G60A",
    "self-cleavage kobs at 40 uM GlcN6P": "< 1e-05 s⁻¹"
  },
  {
    "mutation_descriptor": "U30A C71A",
    "self-cleavage kobs at 40 uM GlcN6P": "5.08e-05 s⁻¹"
  },
  {
    "mutation_descriptor": "U46C C67A",
    "self-cleavage kobs at 40 uM GlcN6P": "3.57e-05 s⁻¹"
  },
  {
    "mutation_descriptor": "U69C",
    "self-cleavage kobs at 40 uM GlcN6P": "0.000631 s⁻¹"
  },
  {
    "mutation_descriptor": "G9A U31G",
    "self-cleavage kobs at 40 uM GlcN6P": "< 1e-05 s⁻¹"
  },
  {
    "mutation_descriptor": "U31G G40A",
    "self-cleavage kobs at 40 uM GlcN6P": "0.00011 s⁻¹"
  },
  {
    "mutation_descriptor": "A15C A33U",
    "self-cleavage kobs at 40 uM GlcN6P": "< 1e-05 s⁻¹"
  },
  {
    "mutation_descriptor": "A52C G62U C71A",
    "self-cleavage kobs at 40 uM GlcN6P": "< 1e-05 s⁻¹"
  },
  {
    "mutation_descriptor": "C58U G59U",
    "self-cleavage kobs at 40 uM GlcN6P": "< 1e-05 s⁻¹"
  },
  {
    "mutation_descriptor": "A52U U65G",
    "self-cleavage kobs at 40 uM GlcN6P": "< 1e-05 s⁻¹"
  },
  {
    "mutation_descriptor": "U31A U56A",
    "self-cleavage kobs at 40 uM GlcN6P": "0.000218 s⁻¹"
  },
  {
    "mutation_descriptor": "G40U A53U",
    "self-cleavage kobs at 40 uM GlcN6P": "0.000101 s⁻¹"
  },
  {
    "mutation_descriptor": "G37U A52G",
    "self-cleavage kobs at 40 uM GlcN6P": "< 1e-05 s⁻¹"
  },
  {
    "mutation_descriptor": "G29C A36C U49C U54G",
    "self-cleavage kobs at 40 uM GlcN6P": "< 1e-05 s⁻¹"
  },
  {
    "mutation_descriptor": "C11U G66U",
    "self-cleavage kobs at 40 uM GlcN6P": "< 1e-05 s⁻¹"
  },
  {
    "mutation_descriptor": "U46C G51U",
    "self-cleavage kobs at 40 uM GlcN6P": "< 1e-05 s⁻¹"
  },
  {
    "mutation_descriptor": "C10A A15U",
    "self-cleavage kobs at 40 uM GlcN6P": "< 1e-05 s⁻¹"
  },
  {
    "mutation_descriptor": "G38U A42U U49A G60U",
    "self-cleavage kobs at 40 uM GlcN6P": "< 1e-05 s⁻¹"
  },
  {
    "mutation_descriptor": "C34A G51A",
    "self-cleavage kobs at 40 uM GlcN6P": "< 1e-05 s⁻¹"
  },
  {
    "mutation_descriptor": "A6G G38A C50G C71A",
    "self-cleavage kobs at 40 uM GlcN6P": "9.73e-05 s⁻¹"
  },
  {
    "mutation_descriptor": "C10G A33U C67G",
    "self-cleavage kobs at 40 uM GlcN6P": "< 1e-05 s⁻¹"
  },
  {
    "mutation_descriptor": "C16U G40U U56A C71G",
    "self-cleavage kobs at 40 uM GlcN6P": "3.89e-05 s⁻¹"
  },
  {
    "mutation_descriptor": "C10G A39C U45A U54G G62C",
    "self-cleavage kobs at 40 uM GlcN6P": "< 1e-05 s⁻¹"
  }
]

The measured values listed here are drawn from the supplement of paper PMC7125110.
